Test system: L. donovani HU3 promastigotes
EXPERIMENT_NOTES: Anti-promastigote activity (MTS assay), L. donovani HU3
Type: cell-based
TEST_CONTEXT: 72 hours
Structures can show the parent of a compound that is named as a salt.
ATTRIBUTE_MEASURED: IC50 (µM)

Here is how some molecules turned out for IC50.
>  <MOLECULE>
C[C@@H]1[C@H](O)[C@@H](C)/C=C/C=C/C=C/C=C/C=C/C=C/C=C/[C@H](O[C@@H]2O[C@H](C)[C@@H](O)[C@H](N)[C@@H]2O)C[C@@H]2O[C@](O)(C[C@@H](O)C[C@@H](O)[C@H](O)CC[C@@H](O)C[C@@H](O)CC(=O)O[C@H]1C)C[C@H](O)[C@H]2C(=O)O

>  <IC50 / µM>
0.2

$$$$
>  <MOLECULE>
O=c1cc(-c2ccc(OCCOCCN(Cc3cccnc3)Cc3cccnc3)cc2)oc2ccccc12 [FM09b.HCl]

>  <IC50 / µM>
12.9

$$$$

(A) COc1ccnc(CN(CCOCCOc2ccc(-c3cc(=O)c4ccccc4o3)cc2)Cc2nccc(OC)c2OC)c1OC [FM09aHCl]
(B) O=c1cc(-c2ccc(OCCOCCN(Cc3ccccn3)Cc3ccccn3)cc2)oc2ccccc12 [FM09.HCl]
(C) O=c1cc(-c2ccc(OCCOCCNCc3ccccn3)cc2)oc2ccccc12 [FM09m.HCl]
(D) O=c1cc(-c2ccc(OCCOCCN(Cc3ncccc3F)Cc3ncccc3F)cc2)oc2ccccc12 [FM09c.HCl]
Request: Reorder: IC50, max to min. Hello, could you send the labels back in the order asked? Thank you.
Response: C, D, A, B
(C: 18.2 µM, D: 4.97 µM, A: 0.99 µM, B: 0.2 µM)

---

Tested on: peritoneal elicited macrophages (PEM)
EXPERIMENT_NOTES: Cytotoxicity, peritoneal elicited macrophages (PEM)
Assay type: cell-based, mouse
Counter-ions that a name gives are not always drawn.
ATTRIBUTE_MEASURED: IC50 (µM)
Give the value in µM but do not write µM after it.

Here is how some compounds turned out for IC50.
>  <COMPOUND>
Cl.O=c1cc(-c2ccc(OCCC3CCN(Cc4ccncc4)CC3)cc2)oc2ccccc12 [FM05.HCl]

>  <TEST_TARGET>
peritoneal elicited macrophages (PEM)

>  <IC50 / µM>
23.8

$$$$
>  <COMPOUND>
O=c1cc(-c2ccc(OCCN3CCN(Cc4ccncc4)CC3)cc2)oc2ccccc12 [FM01.HCl]

>  <TEST_TARGET>
peritoneal elicited macrophages (PEM)

>  <IC50 / µM>
55.9

$$$$

IC50 recorded for this compound, O=c1cc(-c2ccc(OCCOCCNCc3ccccn3)cc2)oc2ccccc12 [FM09m.HCl] , is 28.3

---

System: peritoneal elicited macrophages (PEM)
EXPERIMENT_NOTES: Cytotoxicity, peritoneal elicited macrophages (PEM)
Type: cell-based, mouse
TEST_CONTEXT: peritoneal elicited macrophages; read-out: Cytotoxicity IC50, PEM
ATTRIBUTE_MEASURED: IC50 (µM)
Give the value in µM but do not write µM after it.

IC50 recorded for this compound, C[C@@H]1[C@H](O)[C@@H](C)/C=C/C=C/C=C/C=C/C=C/C=C/C=C/[C@H](O[C@@H]2O[C@H](C)[C@@H](O)[C@H](N)[C@@H]2O)C[C@@H]2O[C@](O)(C[C@@H](O)C[C@@H](O)[C@H](O)CC[C@@H](O)C[C@@H](O)CC(=O)O[C@H]1C)C[C@H](O)[C@H]2C(=O)O , is 7.4
